# measurement.target: high affinity epibatidine binding sites (Mus musculus, UniProt O70174+Q9ERK7)
# Sequence (Q9ERK7 26-501): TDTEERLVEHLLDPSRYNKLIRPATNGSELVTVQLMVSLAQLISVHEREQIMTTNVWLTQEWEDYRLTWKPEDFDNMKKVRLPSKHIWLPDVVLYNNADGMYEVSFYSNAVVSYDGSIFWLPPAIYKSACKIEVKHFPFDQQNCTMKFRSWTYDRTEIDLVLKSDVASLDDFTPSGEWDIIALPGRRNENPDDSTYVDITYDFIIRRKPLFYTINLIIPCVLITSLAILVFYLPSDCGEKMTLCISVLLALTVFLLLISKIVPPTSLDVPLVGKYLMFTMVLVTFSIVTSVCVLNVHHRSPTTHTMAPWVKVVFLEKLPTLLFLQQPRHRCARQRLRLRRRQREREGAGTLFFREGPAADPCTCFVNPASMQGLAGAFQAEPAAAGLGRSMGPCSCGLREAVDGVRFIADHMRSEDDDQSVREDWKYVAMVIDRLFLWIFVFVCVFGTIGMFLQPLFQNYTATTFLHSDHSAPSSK
# Sequence (O70174 31-629): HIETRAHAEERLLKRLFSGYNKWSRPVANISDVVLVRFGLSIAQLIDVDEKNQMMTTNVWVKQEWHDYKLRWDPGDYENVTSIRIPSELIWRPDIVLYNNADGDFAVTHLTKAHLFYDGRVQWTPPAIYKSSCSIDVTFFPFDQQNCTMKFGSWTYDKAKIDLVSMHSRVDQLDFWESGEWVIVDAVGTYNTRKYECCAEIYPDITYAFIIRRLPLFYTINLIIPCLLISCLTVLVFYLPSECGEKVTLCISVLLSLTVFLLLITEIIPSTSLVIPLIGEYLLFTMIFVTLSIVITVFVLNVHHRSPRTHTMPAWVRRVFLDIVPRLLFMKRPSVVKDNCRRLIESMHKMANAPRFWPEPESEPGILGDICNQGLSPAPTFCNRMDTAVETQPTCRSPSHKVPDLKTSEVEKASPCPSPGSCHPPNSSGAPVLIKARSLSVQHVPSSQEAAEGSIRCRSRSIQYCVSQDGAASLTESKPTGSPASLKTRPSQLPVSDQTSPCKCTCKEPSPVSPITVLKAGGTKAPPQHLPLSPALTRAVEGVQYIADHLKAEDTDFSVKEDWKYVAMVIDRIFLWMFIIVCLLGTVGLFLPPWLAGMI
# method.description: biochemical
pKi: −log10 of the molar value.
# maps each entry to its pKi
quantity.measured: pKi

> print(dat)
                                   compound  endpoint.value
1  O=c1cccc2n1C[C@@H]1CNC[C@H]2C1 [cytisine]            9.49
2  Clc1ccc(C2CC3CCC2N3)cn1 (racemic) [epibatidine, (±)-epibatidine]           10.62

###

# measurement.target: α4β2*-nAChR (Mus musculus, UniProt O70174+Q9ERK7)
# Sequence (Q9ERK7 26-501): as the sequence (Q9ERK7 26-501) above
# Sequence (O70174 31-629): as the sequence (O70174 31-629) above
# method.description: biochemical
# condition.context: IC50 for desensitization of the HS component
pIC50: −log10 of the molar value.
quantity.measured: pIC50

> print(dat)
                                   compound  quantity.measured  endpoint.value
1  Clc1ccc(C2CC3CCC2N3)cn1 (racemic) [epibatidine, (±)-epibatidine]              pIC50            9.48
